Test system: histone H2B-HaloTag fusion
Assay: Halo-protein specificity (Specificity Factor), single-molecule imaging in U2OS cells
Assay type: cell-based
Conditions: ratio of slope (spots vs dye concentration, 1-200 nM, 45 minutes) relative to PA-JF549
Experimental: The following day the cells were incubated with PA-JF549 or Examples 1-4 at a range of concentrations between 200 nM and 1 nM for 45 minutes. […] Samples were imaged on a Nikon Ti2 microscope with fiber-optic coupled illumination source. […] Images were collected every 10 msec for 5 seconds per field of view and pulses of ascending intensity 405 nm light (between 0 and 12 mW at the coverslip) were used to photoactivate dye molecules. […]

Structure notation: CN(C)C(=O)C1CN(c2ccc3c(c2)Oc2cc(N4CC(C(=O)N(C)C)C4)ccc2C32C(=[N+]=[N-])C(=O)c3ccc(C(=O)NCCOCCOCCCCCCCl)cc32)C1
Qualifier symbol: =
Specificity Factor: 23.8

Structure notation: COC[C@H]1CCN1c1ccc2c(c1)Oc1cc(N3CC[C@@H]3COC)ccc1C21C(=[N+]=[N-])C(=O)c2ccc(C(=O)NCCOCCOCCCCCCCl)cc21
Qualifier symbol: =
Specificity Factor: 2.07

Structure notation: [N-]=[N+]=C1C(=O)c2ccc(C(=O)NCCOCCOCCCCCCCl)cc2C12c1ccc(N3CC(C(=O)O)C3)cc1Oc1cc(N3CC(C(=O)O)C3)ccc12
Qualifier symbol: <
Specificity Factor: 1

Structure notation: COC(=O)C1CN(c2ccc3c(c2)Oc2cc(N4CC(C(=O)OC)C4)ccc2C32C(=[N+]=[N-])C(=O)c3ccc(C(=O)NCCOCCOCCCCCCCl)cc32)C1
Qualifier symbol: =
Specificity Factor: 2.66

###

target: Estrogen Receptor-HaloTag (ER-Halo) fusion (Rhodococcus rhodochrous, UniProt P0A3G2, A155T/A167V/A172T/A224E/C128F/C176G/D78G/E160K/E257K/H272N/K175M/K195N/L47V/L88M/N227D/P291S/S58T/T264A/Y273L/Y87F); construct: expressed in transfected cells; host or cells: U2OS; format: cell-based; details: Table 4a; tracks in WT U2OS cells, ratio with PA-JF549 in the numerator; 100 nM, 1 hr
Sequence (P03372 whole entry, the tested form may be a part): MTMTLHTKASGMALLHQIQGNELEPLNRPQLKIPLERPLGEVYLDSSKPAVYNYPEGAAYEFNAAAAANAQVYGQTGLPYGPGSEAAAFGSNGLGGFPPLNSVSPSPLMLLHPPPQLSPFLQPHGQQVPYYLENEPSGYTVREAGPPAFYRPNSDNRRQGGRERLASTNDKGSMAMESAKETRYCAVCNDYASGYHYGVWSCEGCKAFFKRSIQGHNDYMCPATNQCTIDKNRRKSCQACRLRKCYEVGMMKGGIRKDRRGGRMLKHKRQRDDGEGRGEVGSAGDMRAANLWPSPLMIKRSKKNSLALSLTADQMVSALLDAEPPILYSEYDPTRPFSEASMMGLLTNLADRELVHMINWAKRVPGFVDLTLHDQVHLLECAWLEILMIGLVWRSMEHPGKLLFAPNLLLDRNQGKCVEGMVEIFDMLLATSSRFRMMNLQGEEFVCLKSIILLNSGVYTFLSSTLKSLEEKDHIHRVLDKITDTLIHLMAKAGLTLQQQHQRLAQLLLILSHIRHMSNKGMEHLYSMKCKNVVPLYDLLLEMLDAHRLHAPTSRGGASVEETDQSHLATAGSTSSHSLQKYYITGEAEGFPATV
Sequence (P0A3G2 other isoform, or with tags, fused parts or gaps with the stated changes): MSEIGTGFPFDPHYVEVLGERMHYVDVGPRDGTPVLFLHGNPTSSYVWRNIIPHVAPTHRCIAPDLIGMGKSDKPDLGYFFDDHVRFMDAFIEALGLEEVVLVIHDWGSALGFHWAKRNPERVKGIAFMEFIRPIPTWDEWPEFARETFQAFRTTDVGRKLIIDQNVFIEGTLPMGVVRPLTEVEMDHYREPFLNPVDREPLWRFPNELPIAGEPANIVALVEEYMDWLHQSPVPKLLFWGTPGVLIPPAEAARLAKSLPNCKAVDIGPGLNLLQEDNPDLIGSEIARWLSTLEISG
Experimental readout: Fold reduction in nonspecific labeling

Structure notation: COC[C@H]1CCN1c1ccc2c(c1)Oc1cc(N3CC[C@@H]3COC)ccc1C21C(=[N+]=[N-])C(=O)c2ccc(C(=O)NCCOCCOCCCCCCCl)cc21
Experimental result: 1-5
--
Structure notation: CNC(=O)C1CN(c2ccc3c(c2)Oc2cc(N4CC(C(=O)NC)C4)ccc2C32C(=[N+]=[N-])C(=O)c3ccc(C(=O)NCCOCCOCCCCCCCl)cc32)C1
Experimental result: >10
--
Structure notation: [N-]=[N+]=C1C(=O)c2ccc(C(=O)NCCOCCOCCCCCCCl)cc2C12c1ccc(N3CC(C(=O)O)C3)cc1Oc1cc(N3CC(C(=O)O)C3)ccc12
Experimental result: >10
--
Structure notation: COC(=O)C1CN(c2ccc3c(c2)Oc2cc(N4CC(C(=O)OC)C4)ccc2C32C(=[N+]=[N-])C(=O)c3ccc(C(=O)NCCOCCOCCCCCCCl)cc32)C1
Experimental result: >10
--
Structure notation: [N-]=[N+]=C1C(=O)c2ccc(C(=O)NCCOCCOCCCCCCCl)cc2C12c1ccc(N3CC(C(=O)N4CCCC4)C3)cc1Oc1cc(N3CC(C(=O)N4CCCC4)C3)ccc12
Experimental result: 5-10
--
Structure notation: CN(C)C(=O)C1CN(c2ccc3c(c2)Oc2cc(N4CC(C(=O)N(C)C)C4)ccc2C32C(=[N+]=[N-])C(=O)c3ccc(C(=O)NCCOCCOCCCCCCCl)cc32)C1
Experimental result: >10
--
Structure notation: CN(C)C(=O)C1CN(c2ccc3c(c2)Oc2cc(N4CC(C(=O)N(C)C)C4)ccc2C32C(=[N+]=[N-])C(=O)c3ccc(C(=O)NCc4ccc(COc5nc(N)nc6nc[nH]c56)cc4)cc32)C1
Experimental result: >10
